Tested on: Clostridioides difficile
protocol: MIC by broth microdilution against Clostridioides difficile (Table 1)
Type: cell-based
assay_setup: anaerobic, 48 hours; strain BAA-1870
quantity: MIC Clostridioides difficile (µg/mL)

>>> df
                                   molecule  recorded_measurement
0  C=C1C(=O)O[C@H](c2ccccc2O)[C@@H]1c1cccc(C#N)c1 (racemic) [Compound 50]                     8
1  C=C1C(=O)O[C@H](c2c(OC)cc(OC)cc2OC)[C@@H]1c1ccc(C(F)(F)F)cc1 (racemic) [Compound 61]                     8
2  COc1cc(C2OC(=O)C(CN3CCCCC3)C2c2ccccc2Br)ccc1OCc1ccccc1 (racemic) [Compound 27]                     1
3  CC(C)(C)[Si](C)(C)OCCC1OC(=O)C(CN2CCCCC2)C1c1cccc(Br)c1 (racemic) [Compound 48]                     8
4  C=C1C(=O)OC(CCCCCCCC)C1C=Cc1ccccc1 (racemic) [Compound 51]                     8
5  C=C1C(=O)O[C@H](c2ccc(OCc3ccccc3)c(OC(C)=O)c2)[C@@H]1c1ccccc1Br (racemic) [Compound 85]                     4

----------
Test system: clinically important Clostridioides difficile strains
protocol: MIC against clinically important Clostridioides difficile strains
Format: cell-based
assay_setup: CD strain P6
quantity: MIC (µg/mL)

                                   compound  recorded_measurement
0  C=C1C(=O)O[C@H](c2ccc(OCc3ccccc3)c(OC(C)=O)c2)[C@@H]1c1ccccc1Br (racemic)                     4
1  C=C1C(=O)OC(CCCCCCCC)C1C=Cc1ccccc1 (racemic)                     8
2  COc1cc(C2OC(=O)C(CN3CCCCC3)C2c2ccccc2Br)ccc1OCc1ccccc1 (racemic)                     2
3  C=C1C(=O)O[C@H](c2c(OC)cc(OC)cc2OC)[C@@H]1c1ccc(C(F)(F)F)cc1 (racemic)                     8
4  C=C1C(=O)O[C@H](c2ccccc2O)[C@@H]1c1cccc(C#N)c1 (racemic)                   128
5  CC(C)(C)[Si](C)(C)OCCC1OC(=O)C(CN2CCCCC2)C1c1cccc(Br)c1 (racemic)                     8

----------
Tested on: clinically important Clostridioides difficile strains
protocol: MIC against clinically important Clostridioides difficile strains
Type: cell-based
assay_setup: CD strain 1801
Returns: string. Value is label 1 if measured MIC is below 8 µg/mL, and label 0 if it is greater than or equal to it.

                                   molecule  category_label
0  C=C1C(=O)O[C@H](c2ccccc2O)[C@@H]1c1cccc(C#N)c1 (racemic)         label 0
1  C=C1C(=O)OC(CCCCCCCC)C1C=Cc1ccccc1 (racemic)         label 0
2  C=C1C(=O)O[C@H](c2c(OC)cc(OC)cc2OC)[C@@H]1c1ccc(C(F)(F)F)cc1 (racemic)         label 0
3  COc1cc(C2OC(=O)C(CN3CCCCC3)C2c2ccccc2Br)ccc1OCc1ccccc1 (racemic)         label 1
4  C=C1C(=O)O[C@H](c2ccc(OCc3ccccc3)c(OC(C)=O)c2)[C@@H]1c1ccccc1Br (racemic)         label 1
